Data provenance: patent US7550451B2

TARGET_OF_ASSAY: Androgen receptor (Rattus norvegicus, UniProt P15207)
Construct: Prostate cytosol of the castrated rat; from tissue; host or cells: prostate cytosol of castrated rat
Sequence (P15207 1-902): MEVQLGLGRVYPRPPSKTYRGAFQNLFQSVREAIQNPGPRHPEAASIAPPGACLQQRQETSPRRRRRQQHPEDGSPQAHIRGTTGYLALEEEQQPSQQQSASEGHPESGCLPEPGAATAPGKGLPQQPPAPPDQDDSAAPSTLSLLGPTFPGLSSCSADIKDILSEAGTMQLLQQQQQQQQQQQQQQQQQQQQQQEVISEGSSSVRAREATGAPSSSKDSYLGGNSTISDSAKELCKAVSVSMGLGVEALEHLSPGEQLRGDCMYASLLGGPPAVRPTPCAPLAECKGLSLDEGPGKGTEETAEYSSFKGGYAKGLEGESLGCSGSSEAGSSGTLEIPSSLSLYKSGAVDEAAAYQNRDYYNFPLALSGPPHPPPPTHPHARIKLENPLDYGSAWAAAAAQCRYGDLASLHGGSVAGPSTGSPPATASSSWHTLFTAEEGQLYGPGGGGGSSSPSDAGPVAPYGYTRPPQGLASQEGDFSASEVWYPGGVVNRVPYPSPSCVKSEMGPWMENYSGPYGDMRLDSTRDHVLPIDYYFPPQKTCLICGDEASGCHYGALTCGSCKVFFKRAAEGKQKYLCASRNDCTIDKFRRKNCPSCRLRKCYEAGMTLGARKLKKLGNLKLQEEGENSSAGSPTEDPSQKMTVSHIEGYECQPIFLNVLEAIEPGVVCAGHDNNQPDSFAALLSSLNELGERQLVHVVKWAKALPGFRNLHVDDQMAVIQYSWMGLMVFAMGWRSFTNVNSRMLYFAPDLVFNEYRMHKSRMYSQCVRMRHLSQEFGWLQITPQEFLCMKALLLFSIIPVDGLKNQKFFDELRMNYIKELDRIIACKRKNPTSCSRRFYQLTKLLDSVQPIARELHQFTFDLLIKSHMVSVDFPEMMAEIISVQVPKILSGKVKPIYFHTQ
PROTOCOL_DESCRIPTION: Receptor binding affinity, androgen receptor (competitive binding, 3H-metribolone)
SETTINGS: reference RU 1881 (metribolone); prostate cytosol of castrated rat
REPORTED_PROPERTY: AR relative molar binding affinity (RBA) a) against RU 1881

[
  {
    "MOLECULE": "CC(=O)O/N=C/c1ccc([C@H]2C[C@]3(C)[C@@H](OC(C)=O)CC[C@H]3[C@@H]3CCC4=C(Br)C(=O)CCC4=C32)cc1 [Example 14]",
    "TARGET_OF_ASSAY": "Androgen receptor (Rattus norvegicus, UniProt P15207)",
    "REPORTED_VALUE": "a) 6%"
  },
  {
    "MOLECULE": "CC12CC(c3ccc(C=NO)cc3)C3=C4CCC(=O)C=C4CCC3C1CCC2OCc1ccccc1 (stereo not drawn) [Example 17]",
    "TARGET_OF_ASSAY": "Androgen receptor (Rattus norvegicus, UniProt P15207)",
    "REPORTED_VALUE": "a) 2%"
  }
]

###

TARGET_OF_ASSAY: Glucocorticoid receptor (Rattus norvegicus, UniProt P06536)
Construct: Thymus cytosol of the adrenalectomized rat; from tissue; host or cells: thymus cytosol of adrenalectomized rat
Sequence (P06536 whole entry): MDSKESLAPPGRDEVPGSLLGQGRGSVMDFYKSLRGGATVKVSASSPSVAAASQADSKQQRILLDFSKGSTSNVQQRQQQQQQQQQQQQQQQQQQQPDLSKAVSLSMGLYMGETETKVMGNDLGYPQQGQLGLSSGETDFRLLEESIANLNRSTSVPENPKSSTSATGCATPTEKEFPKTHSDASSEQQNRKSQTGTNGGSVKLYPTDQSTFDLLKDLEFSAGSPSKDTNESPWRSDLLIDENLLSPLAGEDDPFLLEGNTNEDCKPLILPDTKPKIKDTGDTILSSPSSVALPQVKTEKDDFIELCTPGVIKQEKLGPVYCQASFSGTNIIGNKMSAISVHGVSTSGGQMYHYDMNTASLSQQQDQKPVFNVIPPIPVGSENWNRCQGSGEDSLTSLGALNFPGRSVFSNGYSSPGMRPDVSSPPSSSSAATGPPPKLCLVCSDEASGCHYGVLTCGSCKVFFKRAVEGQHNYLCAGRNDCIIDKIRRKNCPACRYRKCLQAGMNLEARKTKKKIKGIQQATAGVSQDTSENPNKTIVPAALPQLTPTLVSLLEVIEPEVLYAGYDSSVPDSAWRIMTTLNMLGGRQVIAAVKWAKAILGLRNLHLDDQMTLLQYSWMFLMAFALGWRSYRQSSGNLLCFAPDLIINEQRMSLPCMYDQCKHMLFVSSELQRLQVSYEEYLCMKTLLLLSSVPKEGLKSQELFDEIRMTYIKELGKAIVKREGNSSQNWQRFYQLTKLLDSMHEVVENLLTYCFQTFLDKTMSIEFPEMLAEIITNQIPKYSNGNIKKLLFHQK
PROTOCOL_DESCRIPTION: Receptor binding affinity, glucocorticoid receptor (competitive binding, 3H-dexamethasone)
SETTINGS: Dexamethasone = 100%; thymus cytosol of adrenalectomized rat
REPORTED_PROPERTY: GR relative molar binding affinity (RBA) (%)

[
  {
    "COMPOUND": "C[C@]12C[C@H](c3ccc(/C=N/O)cc3)C3=C4CCC(=O)C=C4CC[C@H]3[C@@H]1CC[C@@H]2OC(=O)c1ccccc1",
    "REPORTED_VALUE": 3
  },
  {
    "COMPOUND": "CC12CC(c3ccc(C=NO)cc3)C3=C4CCC(=O)C(Br)=C4CCC3C1CCC2O (centres unmarked)",
    "REPORTED_VALUE": 0.5
  },
  {
    "COMPOUND": "CO[C@H]1CC[C@H]2[C@@H]3CCC4=CC(=O)CCC4=C3[C@@H](c3ccc(/C=N/O)cc3)C[C@]12C",
    "REPORTED_VALUE": 14
  },
  {
    "COMPOUND": "CC12CC(c3ccc(C=NO)cc3)C3=C4CCC(=O)C=C4CCC3C1CCC2OCc1ccccc1 (centres unmarked)",
    "REPORTED_VALUE": 8
  },
  {
    "COMPOUND": "CC(=O)O/N=C/c1ccc([C@H]2C[C@]3(C)[C@@H](OC(C)=O)CC[C@H]3[C@@H]3CCC4=C(Br)C(=O)CCC4=C32)cc1",
    "REPORTED_VALUE": 0.3
  },
  {
    "COMPOUND": "CC12CC(c3ccc(C=NO)cc3)C3=C4CCC(=O)C=C4CCC3C1CCC2(O)CBr (centres unmarked)",
    "REPORTED_VALUE": 3
  },
  {
    "COMPOUND": "CC12CC(c3ccc(C=NO)cc3)C3=C4CCC(=O)C(Br)=C4CCC3C1CCC2(O)C(F)(F)F (centres unmarked)",
    "REPORTED_VALUE": 1.8
  },
  {
    "COMPOUND": "CC(=O)O[C@H]1CC[C@H]2[C@@H]3CCC4=C(Br)C(=O)CCC4=C3[C@@H](c3ccc(/C=N/O)cc3)C[C@]12C",
    "REPORTED_VALUE": 0.35
  },
  {
    "COMPOUND": "CC(=O)OC1CCC2C3CCC4=CC(=O)CCC4=C3C(c3ccc(C=NO)cc3)CC12C (centres unmarked)",
    "REPORTED_VALUE": 12
  },
  {
    "COMPOUND": "CCNC(=O)O/N=C/c1ccc([C@H]2C[C@@]3(C)[C@@H](CC[C@@]3(O)CO)[C@@H]3CCC4=CC(=O)CCC4=C32)cc1",
    "REPORTED_VALUE": 5
  },
  {
    "COMPOUND": "CCNC(=O)O/N=C/c1ccc([C@H]2C[C@]3(C)[C@@H](O)CC[C@H]3[C@@H]3CCC4=CC(=O)CCC4=C32)cc1",
    "REPORTED_VALUE": 10
  }
]
